- Tested on: GRK4
- run-conditions: concentration: 1 μM, replicates: in singlicate; n = 1;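 further: KINOMEscan kinase panel screen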
measured-parameter: %Inh (%)

- query-smiles: "Cc1ccc(NC(=O)c2ccnc(N3CCCCC3)c2)cc1-c1ccc(C(=O)NCC2CC2)cc1"
  value-reported: 19
- query-smiles: "Nc1ncnc2scc(-c3ccc(NC(=O)Cc4cc(F)ccc4F)cc3)c12.O=C(O)C(F)(F)F"
  value-reported: 15
- query-smiles: "O=C(Nc1n[nH]c2cc(-c3cccs3)ccc12)C1CC1"
  value-reported: 47
- query-smiles: "COc1ccc(NC(=O)c2ccoc2)cc1-c1ccc(C(=O)NCC2CC2)cc1"
  value-reported: 0

---

- System: CSNK2A2
- run-conditions: concentration: 1 μM, replicates: in singlicate; n = 1
measured-parameter: %Inh (%)

- compound: "COc1cc(Nc2nccc(N3CCC(NS(=O)(=O)c4ccc(NC(C)=O)cc4)CC3)n2)cc(OC)c1OC [GSK1379825]"
  output-unit: "%"
  value-reported: 2
- compound: "c1ccc(Oc2ccc(Nc3ccnc4cc(-c5ccc(CN6CCCCC6)o5)ccc34)cc2)nc1 [GW567143]"
  output-unit: "%"
  value-reported: 12
- compound: "Cl.N#CCc1ccc(Nc2nccc(Nc3ccc(Oc4ccccc4)cc3)n2)cc1 [GW639905]"
  output-unit: "%"
  value-reported: 9
- compound: "CS(=O)(=O)c1cccc(CNc2nc(Nc3ccc4c(c3)CCC(=O)N4)ncc2C(F)(F)F)c1"
  output-unit: "%"
  value-reported: 51

---

- Test system: MST1
- Construct: gene STK4
- run-conditions: concentration: 1 μM, replicates: in singlicate; n = 1
measured-parameter: %Inh (%)

- compound: "Cc1ccc(NC(=O)c2cccc(N3CCCCC3)c2)cc1-c1ccc(C(=O)NCC2CC2)cc1"
  study-target: "MST1"
  output-unit: "%"
  value-reported: 13
- compound: "Fc1cc(Cl)ccc1Nc1ccnc2cc(-c3ccc(CN4CCSCC4)o3)ccc12"
  study-target: "MST1"
  output-unit: "%"
  value-reported: 30
- compound: "CCn1c(-c2nonc2N)nc2c(-c3ccccc3)ncc(OCCCN)c21.O=C(O)C(F)(F)F.O=C(O)C(F)(F)F"
  study-target: "MST1"
  output-unit: "%"
  value-reported: 52
- compound: "Cc1cc(-c2c(-c3ccc(F)cc3)ncn2CCCN2CCOCC2)nc(N)n1"
  study-target: "MST1"
  output-unit: "%"
  value-reported: 13
- compound: "Cc1cc(-c2ccnc(Nc3cccc(C#N)c3)n2)cc(C)c1O"
  study-target: "MST1"
  output-unit: "%"
  value-reported: 0
- compound: "Cl.Cl.NC(CNC(=O)c1cc(Br)c(-c2ccnc3[nH]ccc23)s1)c1ccccc1 (centres unmarked)"
  study-target: "MST1"
  output-unit: "%"
  value-reported: 0
- compound: "COc1ccc(C2=C(Nc3cccc(O)c3)C(=O)NC2=O)cc1"
  study-target: "MST1"
  output-unit: "%"
  value-reported: 7
- compound: "O=C(O)C(F)(F)F.O=c1[nH]ccc2nc(N[C@@H]3CCNC3)nc(Nc3cc(Cl)cc(Cl)c3)c12"
  study-target: "MST1"
  output-unit: "%"
  value-reported: 86

---

- Test system: ERK1
- Construct: gene MAPK3
- run-conditions: concentration: 1 μM, replicates: in singlicate; n = 1
Reported %Inh values are given for each entry in this list.
measured-parameter: %Inh

- compound: "Cn1cc(-c2ccc3c(c2)CCN3C(=O)Cc2cc(F)cc(F)c2F)c2c(N)ncnc21"
  value-reported: "9%"
- compound: "CCn1cnc2c(NCc3ccccc3)ncnc21"
  value-reported: "0%"
- compound: "Cl.N#CCc1ccc(Nc2nccc(Nc3ccc(Oc4ccccc4)cc3)n2)cc1"
  value-reported: "0%"
- compound: "Cc1cccc(Nc2nc(NCCN)ncc2C(N)=O)c1"
  value-reported: "0%"
- compound: "Cl.Cl.NCC(NC(=O)c1cc(-c2cccnc2)c(-c2ccnc3[nH]ccc23)s1)c1ccccc1 (centres unmarked)"
  value-reported: "0%"

---

- Tested on: BLK
- run-conditions: concentration: 1 μM, replicates: in singlicate; n = 1
measured-parameter: %Inh (%)

- compound: "COc1cc(Nc2ccnc3cc(-c4ccncc4)ccc23)cc(OC)c1OC.Cl [GW494610]"
  value-reported: 94.9
- compound: "O=C(Nc1n[nH]c2nc(-c3ccccc3O)ccc12)C1CC1 [SB-711880]"
  value-reported: 0
- compound: "CCn1cnc2c(NCc3ccccc3)ncnc21 [SKF-96418]"
  value-reported: 16
- compound: "N#Cc1cnc2cc(-c3cnc(CNCCN4CCOCC4)s3)ccc2c1Nc1ccc(Oc2ccccc2)cc1 [GW664114]"
  value-reported: 99
- compound: "COc1cccc(CC(=O)N2CCc3cc(-c4cn(C)c5ncnc(N)c45)ccc32)c1 [GSK2608899]"
  value-reported: 36
- compound: "Cc1ccc(O)cc1Nc1ccnc2ccc(C(C)(C)C)cc12 [GW856805]"
  value-reported: 95.1
- compound: "Cc1ccc(NC(=O)c2ccc(Cl)c(Cl)c2)cc1-c1ccc(C(=O)Nc2ccncc2)cc1 [GSK1398460]"
  value-reported: 45
- compound: "CC(C)c1nc(-c2cccc(NS(=O)(=O)c3c(F)cccc3F)c2)c(-c2ccnc(Nc3ccc(N4CCOCC4)nc3)n2)s1.Cl [GSK1723980]"
  value-reported: 99.8
- compound: "Cc1ccc(O)cc1Nc1ccnc2cc(-c3ccc(CN4CCCCC4)o3)ccc12 [GW557777]"
  value-reported: 99.7

---

- Tested on: DCAMKL1
- Construct: gene DCLK1
- run-conditions: concentration: 1 μM, replicates: in singlicate; n = 1
Reported %Inh values are given for each entry in this list.

- compound: "Cl.Cl.NC(CNC(=O)c1cc(Br)c(-c2ccnc3[nH]ccc23)s1)c1ccccc1 (centres unmarked) [GSK1322949]"
  %Inh / %: 37
- compound: "CC(C)(C)c1ccc(C(=O)Nc2cn3cc(-n4ccnc4)ccc3n2)cc1"
  %Inh / %: 29
- compound: "Cl.N#CCc1ccc(Nc2nccc(Nc3ccc(Oc4ccccc4)cc3)n2)cc1 [GW639905]"
  %Inh / %: 12
- compound: "COC(=O)Nc1nc2ccc(Oc3ccc(CC(=O)Nc4cc(C(F)(F)F)ccc4F)cc3)cc2[nH]1 [GW680903]"
  %Inh / %: 11
- compound: "COc1ccc(NC(=O)c2ccoc2)cc1-c1ccc(C(=O)NCC2CC2)cc1 [GW810437]"
  %Inh / %: 0
- compound: "Cc1ccccc1CC(=O)N1CCc2cc(-c3cn(C)c4ncnc(N)c34)ccc21 [GSK2603346]"
  %Inh / %: 0
- compound: "CN(c1ccc2c(c1)nc(NCc1ccccc1)n2C)c1ccnc(Nc2ccc(CS(C)(=O)=O)cc2)n1.Cl [GW811603]"
  %Inh / %: 0
- compound: "CN(c1ccc(F)c(NC(=O)c2cccc(OC(C)(C)C#N)c2Cl)c1)c1ccc2nc(NC(=O)C3CC3)sc2n1"
  %Inh / %: 0

---

- Tested on: p38-beta
- Construct: gene MAPK11
- run-conditions: concentration: 1 μM, replicates: in singlicate; n = 1
Reported %Inh values are given for each entry in this list.
measured-parameter: %Inh (%)

- compound: "Cc1nn2c(=O)cc(N3CCO[C@H](C)C3)nc2n1Cc1cccc(Cl)c1Cl"
  measured-parameter: "%Inh"
  output-unit: "%"
  value-reported: 0
- compound: "COc1cc(Nc2nccc(N3CCC(NS(=O)(=O)c4ccc(NC(C)=O)cc4)CC3)n2)cc(OC)c1OC"
  measured-parameter: "%Inh"
  output-unit: "%"
  value-reported: 52
- compound: "Nc1ncnc2scc(-c3ccc(NC(=O)Cc4cc(F)ccc4F)cc3)c12.O=C(O)C(F)(F)F"
  measured-parameter: "%Inh"
  output-unit: "%"
  value-reported: 7
- compound: "CC(C)c1nc(-c2cccc(NS(=O)(=O)c3c(F)cccc3F)c2)c(-c2ccnc(Nc3ccc(N4CCOCC4)nc3)n2)s1.Cl"
  measured-parameter: "%Inh"
  output-unit: "%"
  value-reported: 10
- compound: "NCCC(NC(=O)c1cc(Br)c(-c2ccnc3[nH]ccc23)s1)c1ccccc1.O=C(O)C(F)(F)F.O=C(O)C(F)(F)F (stereo not drawn)"
  measured-parameter: "%Inh"
  output-unit: "%"
  value-reported: 0
- compound: "Cc1cccc(Nc2nc(N[C@H]3CCCC[C@H]3N)ncc2C(N)=O)c1.Cl"
  measured-parameter: "%Inh"
  output-unit: "%"
  value-reported: 0
- compound: "Fc1cc(Cl)ccc1Nc1ccnc2cc(-c3ccc(CN4CCSCC4)o3)ccc12"
  measured-parameter: "%Inh"
  output-unit: "%"
  value-reported: 0
- compound: "COc1ccc(C)c(Nc2ccnc(Nc3ccc(-c4cnc[nH]4)cc3)n2)c1.Cl"
  measured-parameter: "%Inh"
  output-unit: "%"
  value-reported: 14
- compound: "COc1ccc(NC(=O)c2ccoc2)cc1-c1ccc(C(=O)NCC2CC2)cc1"
  measured-parameter: "%Inh"
  output-unit: "%"
  value-reported: 1
- compound: "CN(C)c1ncnc2nc[nH]c12"
  measured-parameter: "%Inh"
  output-unit: "%"
  value-reported: 0
- compound: "c1ccc(Oc2ccc(Nc3ccnc4cc(-c5ccc(CN6CCCCC6)o5)ccc34)cc2)nc1"
  measured-parameter: "%Inh"
  output-unit: "%"
  value-reported: 0
- compound: "CN(C)CCOc1ccc(-c2cc(-c3ccc(Cl)c(O)c3)c(-c3ccncc3)[nH]2)cc1.Cl.Cl"
  measured-parameter: "%Inh"
  output-unit: "%"
  value-reported: 70
